Recorded values, source ChEMBL document CHEMBL1129364.

- targetDesc: Human immunodeficiency virus type 1 reverse transcriptase (Human immunodeficiency virus 1, UniProt Q72547)
valueKind: pIC50
Numbers only, as −log10 of the molar value.

CCCC1(c2ccccc2)Oc2ccccc2-n2cccc2C1=O (configuration not stated) :: 3.30
CCC1(c2ccccc2)Oc2ccccc2-n2cccc2C1=O (configuration not stated) :: 6.60

Give pIC50 for each of the items listed below.
1. CCC1(c2ccccc2)Sc2c(Cl)cccc2-n2cccc2C1=O (configuration not stated)
2. CCC1(c2ccc3ccccc3c2)Oc2ccccc2-n2cccc2C1=O (configuration not stated)
3. CC1(c2ccccc2)Sc2ccccc2-n2cccc2C1=O (configuration not stated)

Result:
[3.30, 6.30, 5.30]

Give pIC50 for each of the items listed below.
1. CCC1(c2ccccc2)Oc2cc3ccccc3cc2-n2cccc2C1=O (configuration not stated)
2. C=CCC1(CC)Oc2ccccc2-n2cccc2C1=O (configuration not stated)
3. CCC1(c2ccccc2)Sc2ccccc2-n2cccc2C1=O (configuration not stated)
4. CCCC1(CC)Oc2ccccc2-n2cccc2C1=O (configuration not stated)
5. CCc1cc(NCc2nc3c(Cl)ccc(Cl)c3o2)c(O)nc1C

Result:
1. 3.82
2. 5.30
3. 4.82
4. 5.00
5. 6.82

----------
The molecules below have reported pIC50 for UniProt:Q72547.
pIC50: −log10 of the molar value.

Solved entries:
O=C1c2cccn2-c2ccccc2OC1(CC1CC1)c1ccccc1 (stereo not given) :: < 3.30
CC(C)=CCC1(c2ccccc2)Oc2ccccc2-n2cccc2C1=O (stereo not given) :: < 3.30
O=C1c2cccn2-c2ccccc2OC1c1ccccc1 (stereo not given) :: < 3.52

Give pIC50 for each of the items listed below.
1. CCC1(c2ccccc2)C(=O)c2cccn2-c2ccccc2S1(=O)=O (stereo not given)
2. CCC1(c2ccccc2)Sc2ccc(C)cc2-n2cccc2C1=O (stereo not given)

Result:
< 3.52
< 3.22
